Tested on: Escherichiacoli DC-2
test.protocol: In vitro antibacterial activity, agar dilution MIC
Assay type: cell-based
settings: code SS, BHI agar, 35-37° C., 20 to 24 hours, unit assumed
Procedure: Representative compounds of the present invention were assayed in vitro for antibacterial activity as follows: Twelve petri dishes containing successive aqueous dilutions of the test compound mixed with 10 mL of sterilized Brain Heart Infusion (BHI) agar (Difco 0418-01-5) were prepared. Each plate was inoculated with 1:100 (or 1:10 for slow-growing strains, such as Micrococcus and Streptococcus) dilutions of up to 32 different microorganisms, using a Steers replicator block. […]
assay.readout: Antibacterial Activity (MIC)

Let me check: CCC1OC(=O)C(C)(O)C(=O)C(C)C(OC2OC(C)CC(N(C)C)C2O)C(C)(OCC(O)CO)CC(C)C(=O)C(C)C2NC(=O)OC12C (stereo not shown) , system Escherichiacoli DC-2, measured Antibacterial Activity (MIC) is > 100 µg/mL

Let me check: CCC1OC(=O)C(C)(CC=Cc2ccccc2)C(=O)C(C)C(OC2OC(C)CC(N(C)C)C2O)C(C)(OC)CC(C)C(=O)C(C)C2NC(=O)OC12C (stereo not shown) , system Escherichiacoli DC-2, measured Antibacterial Activity (MIC) is > 100 µg/mL

Readout Antibacterial Activity (MIC) for C=CCC1(C)C(=O)OC(CC)C2(C)OC(=O)NC2C(C)C(=O)C(C)CC(C)(OCC=Cc2cnc3ccccc3c2)C(OC2OC(C)CC(N(C)C)C2O)C(C)C1=O (stereo not shown) , test system Escherichiacoli DC-2, was > 100 µg/mL

# lookup: CC[C@H]1OC(=O)[C@H](C)[C@@H](O[C@H]2C[C@@](C)(OC)[C@@H](O)[C@H](C)O2)[C@H](C)[C@@H](O[C@@H]2O[C@H](C)C[C@H](N(C)C)[C@H]2O)[C@](C)(O)C[C@@H](C)C(=O)[C@H](C)[C@@H](O)[C@]1(C)O [Ery. A standard, Erythromycin A, reference compound] on Escherichiacoli DC-2, Antibacterial Activity (MIC) = > 100 µg/mL

# value of Antibacterial Activity (MIC), Escherichiacoli DC-2, item CCC1OC(=O)C(C)(O)C(=O)C(C)C(OC2OC(C)CC(N(C)C)C2O)C(C)(OC)CC(C)C(=O)C(C)C2N(CCCCc3ccccc3)C(=O)OC12C (stereo not shown) = > 100 µg/mL

Short answer on Escherichiacoli DC-2 for CCC1OC(=O)C(C)(O)C(=O)C(C)C(OC2OC(C)CC(N(C)C)C2O)C(C)(OCC=Cc2cnc3ccccc3c2)CC(C)C(=O)C(C)C2NC(=O)OC12C (stereo not shown) , Antibacterial Activity (MIC): > 100 µg/mL

Record for C#CCOC1(C)CC(C)C(=O)C(C)C2NC(=O)OC2(C)C(CC)OC(=O)C(C)(CC=Cc2ccccc2)C(=O)C(C)C1OC1OC(C)CC(N(C)C)C1O (stereo not shown) under target or system Escherichiacoli DC-2: Antibacterial Activity (MIC) reported as > 100 µg/mL

###

For each record, write down the corresponding log10(Antibacterial Activity (MIC)).
Test system: Streptococcus pyogenes PIU 2548
test.protocol: In vitro antibacterial activity, agar dilution MIC
Assay type: cell-based
settings: code NN, BHI agar, 35-37° C., 20 to 24 hours, unit assumed
Hello, just confirming the data are log10 of Antibacterial Activity (MIC) with units of µg/mL.

Memo: CCC1OC(=O)C(C)(O)C(=O)C(C)C(OC2OC(C)CC(N(C)C)C2O)C(C)(OCC=Cc2cnc3ccccc3c2)CC(C)C(=O)C(C)C2NC(=O)OC12C (stereo not shown) , reported log10(Antibacterial Activity (MIC)): -0.41

# log10(Antibacterial Activity (MIC)) of CCC1OC(=O)C(C)(O)C(=O)C(C)C(OC2OC(C)CC(N(C)C)C2O)C(C)(OC)CC(C)C(=O)C(C)C2N(CCCCc3ccccc3)C(=O)OC12C (stereo not shown) = -0.41

GET /value?item= CC[C@H]1OC(=O)[C@H](C)[C@@H](O[C@H]2C[C@@](C)(OC)[C@@H](O)[C@H](C)O2)[C@H](C)[C@@H](O[C@@H]2O[C@H](C)C[C@H](N(C)C)[C@H]2O)[C@](C)(O)C[C@@H](C)C(=O)[C@H](C)[C@@H](O)[C@]1(C)O [Ery. A standard, Erythromycin A, reference compound] &field=log10(Antibacterial Activity (MIC)) returns 0.79

Short answer for C=CCC1(C)C(=O)OC(CC)C2(C)OC(=O)NC2C(C)C(=O)C(C)CC(C)(OCC=Cc2cnc3ccccc3c2)C(OC2OC(C)CC(N(C)C)C2O)C(C)C1=O (stereo not shown) : log10(Antibacterial Activity (MIC)) was -0.11

compound C#CCOC1(C)CC(C)C(=O)C(C)C2NC(=O)OC2(C)C(CC)OC(=O)C(C)(CC=Cc2ccccc2)C(=O)C(C)C1OC1OC(C)CC(N(C)C)C1O (stereo not shown) , log10(Antibacterial Activity (MIC)) observed: 0.49

Sure, the documented log10(Antibacterial Activity (MIC)) for CCC1OC(=O)C(C)(CC=Cc2ccccc2)C(=O)C(C)C(OC2OC(C)CC(N(C)C)C2O)C(C)(OC)CC(C)C(=O)C(C)C2NC(=O)OC12C (stereo not shown) is 1.10

###

Tested on: Streptococcus agalactiae CMX 508
test.protocol: In vitro antibacterial activity, agar dilution MIC
Assay type: cell-based
settings: code KK, BHI agar, 35-37° C., 20 to 24 hours, unit assumed
Classification field: enter rule met for Antibacterial Activity (MIC) values not below 2 µg/mL, rule not met for values below it.

IN: Does Antibacterial Activity (MIC) meet or surpass 2 µg/mL for C#CCOC1(C)CC(C)C(=O)C(C)C2NC(=O)OC2(C)C(CC)OC(=O)C(C)(CC=Cc2ccccc2)C(=O)C(C)C1OC1OC(C)CC(N(C)C)C1O (stereo not shown) ?
OUT: rule not met

IN: Identify whether the reported Antibacterial Activity (MIC) of the following molecule is 2 µg/mL or greater: CCC1OC(=O)C(C)(CC=Cc2ccccc2)C(=O)C(C)C(OC2OC(C)CC(N(C)C)C2O)C(C)(OC)CC(C)C(=O)C(C)C2NC(=O)OC12C (stereo not shown)
OUT: rule met

IN: Please tell me: is the molecule CCC1OC(=O)C(C)(O)C(=O)C(C)C(OC2OC(C)CC(N(C)C)C2O)C(C)(OCC=Cc2cnc3ccccc3c2)CC(C)C(=O)C(C)C2NC(=O)OC12C (stereo not shown) at or over 2 µg/mL in terms of Antibacterial Activity (MIC)?
OUT: rule not met

IN: Please check the record CCC1OC(=O)C(C)(O)C(=O)C(C)C(OC2OC(C)CC(N(C)C)C2O)C(C)(OC)CC(C)C(=O)C(C)C2N(CCCCc3ccccc3)C(=O)OC12C (stereo not shown) and state if its Antibacterial Activity (MIC) is at or above 2 µg/mL.
OUT: rule not met

IN: Entry CC[C@H]1OC(=O)[C@H](C)[C@@H](O[C@H]2C[C@@](C)(OC)[C@@H](O)[C@H](C)O2)[C@H](C)[C@@H](O[C@@H]2O[C@H](C)C[C@H](N(C)C)[C@H]2O)[C@](C)(O)C[C@@H](C)C(=O)[C@H](C)[C@@H](O)[C@]1(C)O [Ery. A standard, Erythromycin A, reference compound] : is its Antibacterial Activity (MIC) no less than 2 µg/mL?
OUT: rule not met

IN: # check: Antibacterial Activity (MIC) of C=CCC1(C)C(=O)OC(CC)C2(C)OC(=O)NC2C(C)C(=O)C(C)CC(C)(OCC=Cc2cnc3ccccc3c2)C(OC2OC(C)CC(N(C)C)C2O)C(C)C1=O (stereo not shown) is greater than or equal to 2 µg/mL
OUT: rule not met

IN: Textbook exercise: given the entry CCC1OC(=O)C(C)(O)C(=O)C(C)C(OC2OC(C)CC(N(C)C)C2O)C(C)(OCC(O)CO)CC(C)C(=O)C(C)C2NC(=O)OC12C (stereo not shown) , state whether its Antibacterial Activity (MIC) is greater than or equal to 2 µg/mL.
OUT: rule met

###

Test system: Streptococcus Pneumonia ATCC 6303
test.protocol: In vitro antibacterial activity, agar dilution MIC
Assay type: cell-based
settings: code XX, BHI agar, 35-37° C., 20 to 24 hours, unit assumed
assay.readout: Antibacterial Activity (MIC) (µg/mL)
Answer in µg/mL, number only, no unit symbol.

Noted for CCC1OC(=O)C(C)(O)C(=O)C(C)C(OC2OC(C)CC(N(C)C)C2O)C(C)(OCC(O)CO)CC(C)C(=O)C(C)C2NC(=O)OC12C (centres unmarked) : its Antibacterial Activity (MIC) reads 64

Short answer for CC[C@H]1OC(=O)[C@H](C)[C@@H](O[C@H]2C[C@@](C)(OC)[C@@H](O)[C@H](C)O2)[C@H](C)[C@@H](O[C@@H]2O[C@H](C)C[C@H](N(C)C)[C@H]2O)[C@](C)(O)C[C@@H](C)C(=O)[C@H](C)[C@@H](O)[C@]1(C)O [Ery. A standard, Erythromycin A, reference compound] : Antibacterial Activity (MIC) was 0.06
